system: Ab17978; experiment: MIC, microdilution broth method; format: cell-based; details: Acinetobacter baumannii (AB17978), Gram-Negative; read-out: MIC
Here the recorded MIC is given for each entry.

- MOLECULE: "C[C@H]1COc2c(N3CCN(c4ncc(F)cn4)CC3)c(F)cc3c(=O)c(C(=O)O)cn1c23 [ML-83-010]"
  RESULT_UNIT: "µg/mL"
  CMP: "="
  MIC: 2
- MOLECULE: "C[C@H]1COc2c(N3CC[C@@H](Nc4ncc(F)cn4)C3)c(F)cc3c(=O)c(C(=O)O)cn1c23 [KSN-L34]"
  RESULT_UNIT: "µg/mL"
  CMP: "≤"
  MIC: 0.125
- MOLECULE: "C[C@H]1COc2c(N3CC[C@@H](Nc4cnccn4)C3)c(F)cc3c(=O)c(C(=O)O)cn1c23 [KSN-BL1]"
  RESULT_UNIT: "µg/mL"
  CMP: "="
  MIC: 0.25
- MOLECULE: "Cc1cc(N2CCN(c3c(F)cc4c(=O)c(C(=O)O)cn5c4c3OC[C@@H]5C)CC2)nc(C(C)C)n1 [ML-83-011]"
  RESULT_UNIT: "µg/mL"
  CMP: "="
  MIC: 16
